Known log10 of IC50 of a selection of compounds
Test system: 885512-296-R-J2-PDC complex spheroid growth, % test/control
Assay: Anticancer human tumor 885512-296-R-J2-PDC patient-derived breast carcinoma cell line growth inhibition [AhR]
Settings: curve of first compound; second compound 1 µM
In plain terms, each number is the log10 of measured IC50 in nM.

Reference set, count: 6
CC1(C)CCC(CN2CCN(c3ccc(C(=O)NS(=O)(=O)c4ccc(NCC5CCOCC5)c([N+](=O)[O-])c4)c(Oc4cnc5[nH]ccc5c4)c3)CC2)=C(c2ccc(Cl)cc2)C1 + Cc1ccccc1N=Nc1ccc(NC(=O)c2ccnn2C)c(C)c1
3.62
Nc1ncn(C2CC(O)C(CO)O2)c(=O)n1 (configuration not stated) + Cc1ccccc1N=Nc1ccc(NC(=O)c2ccnn2C)c(C)c1
2.92
O=C(c1cc(Cc2n[nH]c(=O)c3ccccc23)ccc1F)N1CCN(C(=O)C2CC2)CC1 + Cc1cncc(-c2nc(NCCc3c[nH]c4ccccc34)c3ncn(C(C)C)c3n2)c1
3.81
Nc1ncn(C2CC(O)C(CO)S2)c(=O)n1 (configuration not stated) + Cc1ccccc1N=Nc1ccc(NC(=O)c2ccnn2C)c(C)c1
2.28
COc1cc(Nc2ncc3c(n2)-c2ccc(Cl)cc2C(c2c(F)cccc2OC)=NC3)ccc1C(=O)O + CC(CO)NC(=O)c1cc(-c2ccc(Cl)cc2)nn(-c2cnn(C)c2)c1=O
2.66
CC1COCCN1c1cc(C2(S(C)(=N)=O)CC2)nc(-c2ccnc3[nH]ccc23)n1 (configuration not stated) + Cc1cncc(-c2nc(NCCc3c[nH]c4ccccc34)c3ncn(C(C)C)c3n2)c1
3.18

log10 of IC50 reading for COc1cc(C2c3cc4c(cc3C(OC3OC5COC(C)OC5C(O)C3O)C3COC(=O)C23)OCO4)cc(OC)c1O (configuration not stated) + Cc1ccccc1N=Nc1ccc(NC(=O)c2ccnn2C)c(C)c1 : 2.63

log10 of IC50 reading for Nc1ncn(C2CC(O)C(CO)O2)c(=O)n1 (configuration not stated) + CC(CO)NC(=O)c1cc(-c2ccc(Cl)cc2)nn(-c2cnn(C)c2)c1=O : 2.94

log10 of IC50 reading for CC1COCCN1c1cc(C2(S(C)(=N)=O)CC2)nc(-c2ccnc3[nH]ccc23)n1 (configuration not stated) + CC(CO)NC(=O)c1cc(-c2ccc(Cl)cc2)nn(-c2cnn(C)c2)c1=O : 3.19

* * *

Test system: 885512-296-R-J2-PDC complex spheroid growth, % test/control
Test: Anticancer human tumor 885512-296-R-J2-PDC cell line growth inhibition [AhR];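 further: spheroids exposed to compounds for seven days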
Conditions: second compound 1 µM; first compound 0.0316 µM; stronger effect = lower value
Reported endpoint: viability, T/C

Reference set, count: 3
CC1COCCN1c1cc(C2(S(C)(=N)=O)CC2)nc(-c2ccnc3[nH]ccc23)n1 (stereo unspecified) + CC(CO)NC(=O)c1cc(-c2ccc(Cl)cc2)nn(-c2cnn(C)c2)c1=O
100%
Nc1ccn(C2OC(CO)C(O)C2(F)F)c(=O)n1 (stereo unspecified) + CC(CO)NC(=O)c1cc(-c2ccc(Cl)cc2)nn(-c2cnn(C)c2)c1=O
2.96%
COc1ccc([C@@H](O)c2cc(-c3ncnc4cc(N5CCOCC5)ccc34)c(F)cc2Cl)nn1 + Cc1ccccc1N=Nc1ccc(NC(=O)c2ccnn2C)c(C)c1
112%

viability, T/C reading for Cn1ncnc1C1c2n[nH]c(=O)c3cc(F)cc(c23)NC1c1ccc(F)cc1 (stereo unspecified) + Cc1ccccc1N=Nc1ccc(NC(=O)c2ccnn2C)c(C)c1 : 67.5%

viability, T/C reading for CC[C@@]1(O)C(=O)OCc2c1cc1n(c2=O)Cc2cc3c(CN(C)C)c(O)ccc3nc2-1 + Cc1cncc(-c2nc(NCCc3c[nH]c4ccccc34)c3ncn(C(C)C)c3n2)c1 : 6.8%

viability, T/C reading for COc1cc(C2c3cc4c(cc3C(OC3OC5COC(C)OC5C(O)C3O)C3COC(=O)C23)OCO4)cc(OC)c1O (stereo unspecified) + CC(CO)NC(=O)c1cc(-c2ccc(Cl)cc2)nn(-c2cnn(C)c2)c1=O : 101%

* * *

Known viability, T/C of a selection of compounds
System: 885512-296-R-J2-PDC complex spheroid growth, % test/control
Assay: Anticancer human tumor 885512-296-R-J2-PDC cell line growth inhibition [AhR];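 further: spheroids exposed to compounds for seven days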
Details: second compound 1 µM; first compound 0.0316 µM; stronger effect = lower value

Reference set, count: 7
COc1ccc([C@@H](O)c2cc(-c3ncnc4cc(N5CCOCC5)ccc34)c(F)cc2Cl)nn1 + Cc1cncc(-c2nc(NCCc3c[nH]c4ccccc34)c3ncn(C(C)C)c3n2)c1
90.9%
COc1cc(Nc2ncc3c(n2)-c2ccc(Cl)cc2C(c2c(F)cccc2OC)=NC3)ccc1C(=O)O + Cc1cncc(-c2nc(NCCc3c[nH]c4ccccc34)c3ncn(C(C)C)c3n2)c1
44.5%
CC1COCCN1c1cc(-c2ccnn2C)c2ccnc(-c3ccn[nH]3)c2n1 (stereo not drawn) + Cc1cncc(-c2nc(NCCc3c[nH]c4ccccc34)c3ncn(C(C)C)c3n2)c1
40.3%
Nc1ccccc1NC(=O)c1ccc(CNC(=O)OCc2cccnc2)cc1 + Cc1cncc(-c2nc(NCCc3c[nH]c4ccccc34)c3ncn(C(C)C)c3n2)c1
82.3%
CC[C@@]1(O)C(=O)OCc2c1cc1n(c2=O)Cc2cc3c(CN(C)C)c(O)ccc3nc2-1 + Cc1ccccc1N=Nc1ccc(NC(=O)c2ccnn2C)c(C)c1
8.48%
O=C(c1cc(Cc2n[nH]c(=O)c3ccccc23)ccc1F)N1CCN(C(=O)C2CC2)CC1 + CC(CO)NC(=O)c1cc(-c2ccc(Cl)cc2)nn(-c2cnn(C)c2)c1=O
96.4%
CC(C)c1c(-c2ccccc2)nc2c(C#N)c[nH]n2c1=O + Cc1ccccc1N=Nc1ccc(NC(=O)c2ccnn2C)c(C)c1
96.2%

# evaluate next
Short answer on 885512-296-R-J2-PDC complex spheroid growth, % test/control for CC[C@@]1(O)C(=O)OCc2c1cc1n(c2=O)Cc2cc3c(CN(C)C)c(O)ccc3nc2-1 + CC(CO)NC(=O)c1cc(-c2ccc(Cl)cc2)nn(-c2cnn(C)c2)c1=O , viability, T/C: 10%

* * *

Tested on: 885512-296-R-J2-PDC complex spheroid growth, % test/control
Test: Anticancer human tumor 885512-296-R-J2-PDC cell line growth inhibition [AhR];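 further: spheroids exposed to compounds for seven days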
Settings: second compound 1 µM; first compound 0.0949 µM; stronger effect = lower value
One threshold, 30%, splits the recorded viability, T/C values: lower ones are t, equal or higher ones are f.

CCN(c1cc(-c2ccc(CN3CCOCC3)cc2)cc(C(=O)NCc2c(C)cc(C)[nH]c2=O)c1C)C1CCOCC1 + Cc1cncc(-c2nc(NCCc3c[nH]c4ccccc34)c3ncn(C(C)C)c3n2)c1
f

Please determine if CCN(c1cc(-c2ccc(CN3CCOCC3)cc2)cc(C(=O)NCc2c(C)cc(C)[nH]c2=O)c1C)C1CCOCC1 + Cc1ccccc1N=Nc1ccc(NC(=O)c2ccnn2C)c(C)c1 is below 30% in terms of viability, T/C.
f

Please determine if O=C(C=Cn1cnc(-c2cc(C(F)(F)F)cc(C(F)(F)F)c2)n1)NNc1cnccn1 + Cc1cncc(-c2nc(NCCc3c[nH]c4ccccc34)c3ncn(C(C)C)c3n2)c1 is below 30% in terms of viability, T/C.
f

Please determine if Nc1ncn(C2CC(O)C(CO)S2)c(=O)n1 (stereo not given) + CC(CO)NC(=O)c1cc(-c2ccc(Cl)cc2)nn(-c2cnn(C)c2)c1=O is below 30% in terms of viability, T/C.
f

Please determine if CC(C)CC(NC(=O)C(Cc1ccccc1)NC(=O)c1cnccn1)B(O)O (stereo not given) + Cc1cncc(-c2nc(NCCc3c[nH]c4ccccc34)c3ncn(C(C)C)c3n2)c1 is below 30% in terms of viability, T/C.
t

* * *

System: 885512-296-R-J2-PDC complex spheroid growth, % test/control
Assay: Anticancer human tumor 885512-296-R-J2-PDC cell line growth inhibition [AhR]; active = viability on the fitted dose curve at most 10% of control; inactive = the rest;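 further: spheroids exposed to compounds for seven days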
Details: second compound 0.316 µM; first compound 0.316 µM
Classes to choose from: active, inactive

COc1cc(C2c3cc4c(cc3C(OC3OC5COC(C)OC5C(O)C3O)C3COC(=O)C23)OCO4)cc(OC)c1O (stereo unspecified) + Cc1ccccc1N=Nc1ccc(NC(=O)c2ccnn2C)c(C)c1
inactive
COc1ccc([C@@H](O)c2cc(-c3ncnc4cc(N5CCOCC5)ccc34)c(F)cc2Cl)nn1 + Cc1cncc(-c2nc(NCCc3c[nH]c4ccccc34)c3ncn(C(C)C)c3n2)c1
inactive
Nc1ccccc1NC(=O)c1ccc(CNC(=O)OCc2cccnc2)cc1 + Cc1cncc(-c2nc(NCCc3c[nH]c4ccccc34)c3ncn(C(C)C)c3n2)c1
inactive
COc1cc(Nc2ncc3c(n2)-c2ccc(Cl)cc2C(c2c(F)cccc2OC)=NC3)ccc1C(=O)O + CC(CO)NC(=O)c1cc(-c2ccc(Cl)cc2)nn(-c2cnn(C)c2)c1=O
inactive
CC1COCCN1c1cc(-c2ccnn2C)c2ccnc(-c3ccn[nH]3)c2n1 (stereo unspecified) + Cc1cncc(-c2nc(NCCc3c[nH]c4ccccc34)c3ncn(C(C)C)c3n2)c1
active
CC1COCCN1c1cc(-c2ccnn2C)c2ccnc(-c3ccn[nH]3)c2n1 (stereo unspecified) + CC(CO)NC(=O)c1cc(-c2ccc(Cl)cc2)nn(-c2cnn(C)c2)c1=O
active
CC1(C)CCC(CN2CCN(c3ccc(C(=O)NS(=O)(=O)c4ccc(NCC5CCOCC5)c([N+](=O)[O-])c4)c(Oc4cnc5[nH]ccc5c4)c3)CC2)=C(c2ccc(Cl)cc2)C1 + CC(CO)NC(=O)c1cc(-c2ccc(Cl)cc2)nn(-c2cnn(C)c2)c1=O
inactive
CC1(C)CCC(CN2CCN(c3ccc(C(=O)NS(=O)(=O)c4ccc(NCC5CCOCC5)c([N+](=O)[O-])c4)c(Oc4cnc5[nH]ccc5c4)c3)CC2)=C(c2ccc(Cl)cc2)C1 + Cc1ccccc1N=Nc1ccc(NC(=O)c2ccnn2C)c(C)c1
inactive

What did this assay record as the result for Nc1ncn(C2CC(O)C(CO)O2)c(=O)n1 (stereo unspecified) + CC(CO)NC(=O)c1cc(-c2ccc(Cl)cc2)nn(-c2cnn(C)c2)c1=O ?
inactive

What did this assay record as the result for COc1cc(Nc2ncc3c(n2)-c2ccc(Cl)cc2C(c2c(F)cccc2OC)=NC3)ccc1C(=O)O + Cc1cncc(-c2nc(NCCc3c[nH]c4ccccc34)c3ncn(C(C)C)c3n2)c1 ?
inactive

What did this assay record as the result for COc1cccc2c1C(=O)c1c(O)c3c(c(O)c1C2=O)CC(O)(C(=O)CO)CC3OC1CC(N)C(O)C(C)O1 (stereo unspecified) + Cc1ccccc1N=Nc1ccc(NC(=O)c2ccnn2C)c(C)c1 ?
active
